METHOD_SUMMARY: Antiviral activity against Influenza A virus Solomon Islands/03/2006/H1N1 infected MDCK cells assessed as inhibition of virus-induced cytopathic effect after 3 days
Type: functional, organism-based, Influenza A virus (A/Solomon Islands/3/2006(H1N1))
REPORTED_CONDITIONS: Influenza A virus, MDCK, 72 h
RECORDED_ENDPOINT: pEC50
Worth noting: pEC50 values are minus log10 of concentrations stated in mol/L.

Task: Please give the measured pEC50 for this compound: NC(=O)c1ncn([C@@H]2O[C@H](CO)[C@@H](O)[C@H]2O)n1 [RIBAVIRIN]
Output: 4.63

====

Tested on: H5N1 subtype
METHOD_SUMMARY: Antiviral activity against Influenza A virus Duck/MN/1525/81/H5N1 infected MDCK cells assessed as inhibition of virus-induced cytopathic effect after 3 days
Assay type: functional, organism-based, Influenza A virus (A/duck/Minnesota/1525/1981(H5N1))
REPORTED_CONDITIONS: Influenza A virus, MDCK, 72 h
RECORDED_ENDPOINT: EC50 (µM)
Field: numeric (µM). Do not append units.

Task: Entry NC(=O)c1ncn([C@@H]2O[C@H](CO)[C@@H](O)[C@H]2O)n1 [RIBAVIRIN] : reported EC50 = ?
Output: 35.4

Please find the next compound below.
Task: If you can, please state the reported EC50 value of Nc1ccn([C@@H]2C[C@H](CO)[C@@H](O)[C@H]2O)c(=O)n1 .
Output: 1.8
